// data source = patent US20210246166A1

# measured-target: recombinant rat MASP2 active protease (amino acids 296-685, C-terminal His Tag) (rat, UniProt Q9JJS8 296-685)
# Sequence (Q9JJS8 other isoform, or with tags, fused parts or gaps limits assumed): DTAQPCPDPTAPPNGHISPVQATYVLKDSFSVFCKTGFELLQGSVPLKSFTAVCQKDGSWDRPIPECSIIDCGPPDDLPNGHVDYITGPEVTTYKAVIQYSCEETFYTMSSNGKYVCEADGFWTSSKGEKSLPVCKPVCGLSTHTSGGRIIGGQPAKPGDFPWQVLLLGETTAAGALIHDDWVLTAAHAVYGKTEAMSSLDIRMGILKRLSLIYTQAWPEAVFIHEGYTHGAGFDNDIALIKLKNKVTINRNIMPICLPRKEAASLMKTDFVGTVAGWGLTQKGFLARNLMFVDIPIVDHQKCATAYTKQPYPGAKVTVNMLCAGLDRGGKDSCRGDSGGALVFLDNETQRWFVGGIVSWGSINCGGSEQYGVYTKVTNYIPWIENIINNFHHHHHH
# experiment-notes: cell-based or functional assay
Numbered stars: 1 amine (or outer) side, 2 acyl side, 3 side chain; on linkers, the order of the positions; unused ones are H or OH. Bridge positions count the residues as written; N and C are the ends. Square brackets hold non-standard residues; d marks the D form. Ends that are not written are not given here. * marks the point of attachment. X14 = (2,4-dioxoimidazolidin-1-yl)acetic acid, O=C1CN(CC(=O)*)C(=O)N1; NHCH2(1,3-C6H4)CH2CO = O=C(Cc1cccc(CN[*:1])c1)[*:2]; Oic = O=C(O)[C@@H]1C[C@@H]2CCCC[C@@H]2N1; tBuAla = CC(C)(C)C[C@H](N)C(=O)O; Pen = CC(C)(S)[C@H](N)C(=O)O; PEG3 = NCCOCCOCCOCCC(=O)O; Sar = CNCC(=O)O
Would you mind telling me the reported rat MASP2 IC50 of each entry?
Express it in nM; write the number only.

Reported rat MASP2 IC50 for [Sar]ICSRS[tBuAla]PPI[Pen]IP-{PEG3-NH2} (disulfide 3-11) [Example 72: ((N-Me)G)-IC+SRS-((tBu)A)-PPI-(Pen)+IP-(PEG2(13 atoms))-NH2] : what is it?
27

# lookup: rat MASP2 IC50 of [dA]ICSRSLP[Oic]I[Pen]IP[NHCH2(1,3-C6H4)CH2CO]-OH (disulfide 3-11; N-terminus assumed; SMILES CC[C@H](C)[C@H](NC(=O)[C@@H](C)N)C(=O)N[C@H]1CSSC(C)(C)[C@@H](C(=O)N[C@H](C(=O)N2CCC[C@H]2C(=O)NCc2cccc(CC(=O)O)c2)[C@@H](C)CC)NC(=O)[C@H]([C@@H](C)CC)NC(=O)[C@@H]2C[C@@H]3CCCC[C@@H]3N2C(=O)[C@@H]2CCCN2C(=O)[C@H](CC(C)C)NC(=O)[C@H](CO)NC(=O)[C@H](CCCNC(=N)N)NC(=O)[C@H](CO)NC1=O) [Example 478: aIC+SRSLP-(Oic)-I-(Pen)-+IP-(3-Aminomethylphenylacetic acid)-OH]
49

Please look up its rat MASP2 IC50: [Sar]ICSRS[tBuAla]PPI[Pen]IP[Sar][Sar][Sar]-OH (disulfide 3-11; N-terminus assumed; SMILES CC[C@H](C)[C@H](NC(=O)CNC)C(=O)N[C@H]1CSSC(C)(C)[C@@H](C(=O)N[C@H](C(=O)N2CCC[C@H]2C(=O)N(C)CC(=O)N(C)CC(=O)N(C)CC(=O)O)[C@@H](C)CC)NC(=O)[C@H]([C@@H](C)CC)NC(=O)[C@@H]2CCCN2C(=O)[C@@H]2CCCN2C(=O)[C@H](CC(C)(C)C)NC(=O)[C@H](CO)NC(=O)[C@H](CCCNC(=N)N)NC(=O)[C@H](CO)NC1=O) [Example 497: ((N-Me)G)-IC+SRS-((tBu)A)-PPI-(Pen)+IP-((N-Me)G)-((N-Me)G)-((N-Me)G)-OH]
39

Any idea what its rat MASP2 IC50 is? The binder is [Sar]ICSRSLP[Oic]I[Pen]IPDK-OH (disulfide 3-11; N-terminus assumed; SMILES CC[C@H](C)[C@H](NC(=O)CNC)C(=O)N[C@H]1CSSC(C)(C)[C@@H](C(=O)N[C@H](C(=O)N2CCC[C@H]2C(=O)N[C@@H](CC(=O)O)C(=O)N[C@@H](CCCCN)C(=O)O)[C@@H](C)CC)NC(=O)[C@H]([C@@H](C)CC)NC(=O)[C@@H]2C[C@@H]3CCCC[C@@H]3N2C(=O)[C@@H]2CCCN2C(=O)[C@H](CC(C)C)NC(=O)[C@H](CO)NC(=O)[C@H](CCCNC(=N)N)NC(=O)[C@H](CO)NC1=O) [Example 463: ((N-Me)G)-IC+SRSLP-(Oic)-I-(Pen)+IPDK-OH]
100

Could you tell me which rat MASP2 IC50 is on file for X14-ICSRSLP[Oic]I[Pen]IPD-OH (disulfide 2-10; SMILES CC[C@H](C)[C@H](NC(=O)CN1CC(=O)NC1=O)C(=O)N[C@H]1CSSC(C)(C)[C@@H](C(=O)N[C@H](C(=O)N2CCC[C@H]2C(=O)N[C@@H](CC(=O)O)C(=O)O)[C@@H](C)CC)NC(=O)[C@H]([C@@H](C)CC)NC(=O)[C@@H]2C[C@@H]3CCCC[C@@H]3N2C(=O)[C@@H]2CCCN2C(=O)[C@H](CC(C)C)NC(=O)[C@H](CO)NC(=O)[C@H](CCCNC(=N)N)NC(=O)[C@H](CO)NC1=O) [Example 457: ((2,4-dioxoimidazolidin-1-yl)acetic acid)-IC+SRSLP-(Oic)-I-(Pen)+IPD-OH] ?
5
